Biological target: Human TASK-1 channels (Homo sapiens (Human), UniProt O14649)
Sequence (O14649 whole entry): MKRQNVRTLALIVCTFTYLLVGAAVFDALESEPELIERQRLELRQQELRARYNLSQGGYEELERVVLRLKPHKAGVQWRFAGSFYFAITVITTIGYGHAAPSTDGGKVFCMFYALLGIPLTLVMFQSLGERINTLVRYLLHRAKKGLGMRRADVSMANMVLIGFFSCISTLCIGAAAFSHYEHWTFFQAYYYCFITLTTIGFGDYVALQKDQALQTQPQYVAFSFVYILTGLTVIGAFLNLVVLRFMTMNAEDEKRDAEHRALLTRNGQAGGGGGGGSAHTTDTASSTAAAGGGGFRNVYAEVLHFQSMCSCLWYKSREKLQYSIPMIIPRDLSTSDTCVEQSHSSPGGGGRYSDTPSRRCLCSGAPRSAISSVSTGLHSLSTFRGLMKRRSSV
Assay: Determination of the activity on the TASK-1 channel in Xenopus oocytes (two-microelectrode voltage clamp)
Details: human TASK-1 expressed in Xenopus oocytes, room temperature; read-out: IC50 value for TASK-1 inhibition
readoutKind: pIC50
pIC50 here is simply -log10 of the concentration when that concentration is written in mol/L.

Consider the reported pIC50 for these molecules:
Lab book: pIC50 of CC[C@@H](NC(=O)c1cc(C(=O)N2[C@@H](COC)CC[C@@H]2COC)n2c1COCC2)c1ccccc1 [16ep] noted as 6.09

Lab book: pIC50 of CC[C@H](NC(=O)c1cc(C(=O)N[C@H](CC)c2ccccc2)c2n1CCOC2)c1ccccc1 [16hs] noted as 7.00

Lab book: pIC50 of C[C@H](NC(=O)c1cc(C(=O)N[C@H](C)c2ccc(F)cc2)n2c1COCC2)c1ncccn1 (racemic) [16dx] noted as 5.92

Lab book: pIC50 of CC[C@@H](NC(=O)c1cc(C(=O)NCC2CCCC2)n2c1CCCC2)c1ccccc1 [16my] noted as 6.92

Lab book: pIC50 of CC[C@@H](NC(=O)c1cc(C(=O)N2CCC[C@@H]2C)n2c1COCC2)c1ccc(F)c(C(F)(F)F)c1 [16bo] noted as 6.80

Lab book: pIC50 of CC[C@@H](NC(=O)c1cc(C(=O)N2CCC[C@@H]2C)n2c1C(C)OCC2)c1ccccc1 (stereo partly shown) [16lf] noted as 6.96

Further cases:
Lab book: pIC50 of CCC(NC(=O)c1cc(C(=O)N2CCC[C@@H]2C)n2c1COCC2)c1nccs1 (stereo partly shown) [16ae] noted as 6.17

Lab book: pIC50 of CCC[C@@H](NC(=O)c1cc(C(=O)N2CCC[C@@H]2C)n2c1COCC2)c1ccc(C(F)(F)F)nc1 [16bi] noted as 6.82

Lab book: pIC50 of CC[C@@H](NC(=O)c1cc(C(=O)NC(C)c2ncccn2)n2c1COCC2)c1ccccc1 (stereo partly shown) [16hd] noted as 6.25

Lab book: pIC50 of CC[C@@H](NC(=O)c1cc(C(=O)NC(C)c2cnccn2)n2c1COCC2)c1ccccc1 (stereo partly shown) [16hl] noted as 6.77

Lab book: pIC50 of CC[C@@H](NC(=O)c1cc(C(=O)N2CC[C@H](OCC3CC3)C2)n2c1COCC2)c1ccccc1 [16ev] noted as 6.48

Lab book: pIC50 of CC[C@@H](NC(=O)c1cc(C(=O)N2CCC[C@@H]2C)n2c1COCC2)c1ccc(F)cc1F [16v] noted as 6.96

Lab book: pIC50 of CC[C@@H](NC(=O)c1cc(C(=O)N[C@H](C)c2ccc(F)cc2)n2c1CSCC2)c1ccccc1 [16la] noted as 6.82

Lab book: pIC50 of CCOC(=O)CN(C)C(=O)c1cc(C(=O)N[C@H](CC)c2ccccc2)c2n1CCOC2 [16iy] noted as 6.57

Lab book: pIC50 of CC[C@@H](NC(=O)c1cc(C(=O)N2CCC[C@@H]2C)n2c1COCC2)c1cccs1 [16rc] noted as 6.82

Lab book: pIC50 of CC[C@@H](NC(=O)c1cc(C(=O)N[C@@H](C)C2CC2)n2c1CCCC2)c1ccccc1 [16mz] noted as 7.38

====

Molecular target: Human TASK-1 channels (Homo sapiens (Human))
Experiment: Determination of the activity on the TASK-1 channel in Xenopus oocytes (two-microelectrode voltage clamp)
Conditions: human TASK-1 expressed in Xenopus oocytes, room temperature; read-out: IC50 value for TASK-1 inhibition
Below, each entry is listed alongside its reported pIC50.
pIC50 here is simply -log10 of the concentration when that concentration is written in mol/L.

Consider the reported pIC50 for these compounds:
Lab book: pIC50 of CC[C@@H](NC(=O)c1cc(C(=O)N[C@H](CC)c2cnc(OC)cn2)n2c1COCC2)c1ccccc1 [16hy] noted as 7.39

Lab book: pIC50 of CC[C@@H](NC(=O)c1cc(C(=O)N2CC[C@H](OC)C2)n2c1COCC2)c1ccccc1 [16ek] noted as 6.25

We next turn to a different compound, shown below.
Lab book: pIC50 of CC[C@@H](NC(=O)c1cc(C(=O)N2CCC[C@@H]2C)n2c1COCC2)c1c(F)cccc1F [16t] noted as 7.36
